Data credit: the supplement of paper PMC10567573

Catalogue of protein stability index readings, one per entry.
Experiment: protein stability index of a GFP-peptide fusion (GPS, HEK-293T) (PSI 1-6); higher = more stable;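 note: 24-mer peptide tiles fused after GFP, lentivirally expressed, FACS-sorted into six equal bins by GFP/DsRed ratio, decoded by Illumina sequencing, PSI is the read-weighted mean bin number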
Details: treatment: MLN4924 1 uM, 8 h; c terminus: a fixed tail appended
# output: bare number, no unit

{"Sequence": "YENFLEDKALMIAMEYAPGGTLAE [NEK8]", "Assay Readout": "protein stability index", "Readout Number": 3.98}
{"Sequence": "PGGAPRVASRNLFPKDTLMNLHVY [CLPTM1]", "Assay Readout": "protein stability index", "Readout Number": 2.29}
{"Sequence": "GCFLLILGQIVLLPAEARERSRGR [MATN2]", "Assay Readout": "protein stability index", "Readout Number": 2.31}
{"Sequence": "HLEKKGPQVRDWSHYFKIIEDLRA [KRT18]", "Assay Readout": "protein stability index", "Readout Number": 2.69}
{"Sequence": "GISGTTTKKGDLQWNAGEKKLTGG [SNAP91]", "Assay Readout": "protein stability index", "Readout Number": 4.86}

Value of measured protein stability index for the entry HTLAVMNDRLYAIGGNHLKGFSHL [KLHL14] : 2.18

Value of measured protein stability index for the entry PEQGVPKSGEGFIDFIGQVHKTKE [PTPRD] : 5.17

Value of measured protein stability index for the entry ASDMFRRLRDAGFRVTLWVHPFVN [MYORG] : 2.13

Value of measured protein stability index for the entry NLSLVCLPRSEDDDCDDDDDDAQI [DRICH1] : 5.5

Value of measured protein stability index for the entry LGSSAASTALERPSFLSQTGHGVS [FCHO1] : 4.2

Value of measured protein stability index for the entry IKPNEILPPEKGREVAKELGIPYY [RHOBTB2] : 3.79

---

Assay: protein stability index of a GFP-peptide fusion (GPS, HEK-293T) (PSI 1-6); higher = more stable
Settings: treatment: DMSO; c terminus: a fixed tail appended
Catalogue of protein stability index readings, one per entry.
# output: bare number, no unit

{"Sequence": "LLSILPSLLGLLSFPRNNISYLVL [JAGN1]", "protein stability index": 3.15}
{"Sequence": "SLLCLLCSNSQEHGAHKHHPIEEA [TRIM43]", "protein stability index": 2.67}

Let us move to another entry and its protein stability index.
Value of measured protein stability index for the entry DLMETTQYMNEGELRVLADTYDSV [HDAC6] : 2.69

---

Assay: protein stability index of a GFP-peptide fusion (GPS, HEK-293T) (PSI 1-6); higher = more stable
Details: treatment: MLN4924 1 uM, 8 h; c terminus: a fixed tail appended
Catalogue of protein stability index readings, one per entry.
# output: bare number, no unit

In the examples that follow, each entry is paired with its recorded protein stability index.
{"Sequence": "GAGAVSRTCTAPLDRLKVLMQVHA [SLC25A25]", "protein stability index": 2.41}
{"Sequence": "DAALLEMENNHTVAITILQDDHDH [MTUS2]", "protein stability index": 4.92}
{"Sequence": "SAFADIIHSLKESGQLWLDAYLHQ [FADS1]", "protein stability index": 2.25}
{"Sequence": "SMPVRLLGHSPVLRNITNSQAPDG [CDC25B]", "protein stability index": 3.4}
{"Sequence": "NLITTVTPEKKAEEERDEEEDKRR [EPB41L3]", "protein stability index": 5.56}

Value of measured protein stability index for the entry CVSIPDVVGWFVLFYKPGIVLLLA [GULP1] : 3.09

Value of measured protein stability index for the entry QERQGPAKPEVLSIQWPGKRSSRR [NECAB1] : 4.93

Value of measured protein stability index for the entry SSFNFFVFFFIFFVQDVLFVLQAI [SCAMP3] : 3.18

Value of measured protein stability index for the entry IEANFPRRVLPCIPSEEWPNPPTL [FAF2] : 3.05

---

Assay: protein stability index of a GFP-peptide fusion (GPS, HEK-293T) (PSI 1-6); higher = more stable
Details: treatment: DMSO; c terminus: a fixed tail appended
Assay Readout: protein stability index

{"Sequence": "IKPNEILPPEKGREVAKELGIPYY [RHOBTB2]", "Result": 3.73}
{"Sequence": "PEQGVPKSGEGFIDFIGQVHKTKE [PTPRD]", "Result": 4.6}

Let us move to another entry and its protein stability index.
Value of measured protein stability index for the entry EGARAAGLGELGAALLQLVRRLQA [ESRRA] : 3.04

---

Assay: protein stability index of a GFP-peptide fusion (GPS, HEK-293T) (PSI 1-6); higher = more stable
Settings: treatment: DMSO; c terminus: a fixed tail appended
Catalogue of protein stability index readings, one per entry.
# output: bare number, no unit

{"Sequence": "FKDLNESLNALEDQDLDALMADLV [APBB1IP]", "protein stability index": 3.19}
{"Sequence": "GWSLGRWTHDGIDINNNFPDLNTL [CPXM2]", "protein stability index": 2.01}
{"Sequence": "QQGEYSEAIPILRAALKLEPSNKT [FKBP8]", "protein stability index": 4.12}
{"Sequence": "EVEEVENVQTEFPGEDENPEKASE [TRIM55]", "protein stability index": 5.57}
{"Sequence": "LEKPPAPNQAMVVAAAGDACPPQH [TBC1D10A]", "protein stability index": 5.21}

Value of measured protein stability index for the entry LHEEEHVLLMAICIVSPDRPGVQD [VDR] : 2.44

Value of measured protein stability index for the entry KPGLRRSPIKKVRKSLALDIVDED [MYBL2] : 4.84

Value of measured protein stability index for the entry SQSLWNRLSVLLNLLPAAGELQES [SMG5] : 2.75

Value of measured protein stability index for the entry VERAAAAAAAAAGGDAGHAPFPPP [C6orf223] : 5.08

Value of measured protein stability index for the entry LGRSHDTVQEAATSRRARASKKTA [MFSD9] : 5.2

Value of measured protein stability index for the entry NTEEQLEIALAPYQHLEEDMKSLK [MTUS2] : 4.78

Value of measured protein stability index for the entry VNIEWHRFRFGQDQLLLATGLNNG [WSB1] : 2.76

Value of measured protein stability index for the entry EIAQYLLEKGADVNRKSVKGNTAL [FEM1C] : 2.58

Value of measured protein stability index for the entry MSQALKATFSGFKKEQRRLGIPKN [ETS2] : 2.98

---

Catalogue of protein stability index readings, one per entry.
Assay: protein stability index of a GFP-peptide fusion (GPS, HEK-293T) (PSI 1-6); higher = more stable
Conditions: treatment: DMSO; c terminus: a fixed tail appended
# output: bare number, no unit

In the examples that follow, each entry is paired with its recorded protein stability index.
{"Sequence": "TAYWALAGSIGGLFFAVGIAQYAL [SLC22A15]", "Assay Readout": "protein stability index", "Readout Number": 3.06}
{"Sequence": "KVYPVQEALAVLEPYARLPPHKHV [TRIB3]", "Assay Readout": "protein stability index", "Readout Number": 3.02}
{"Sequence": "QTALLESSCENKRADLVFIIDSSR [MATN2]", "Assay Readout": "protein stability index", "Readout Number": 3.05}

Let us move to another entry and its protein stability index.
Value of measured protein stability index for the entry YLGSLQYRVWKKMLASVESVPFSF [TRIM35] : 2.93

---

Test: protein stability index of a GFP-peptide fusion (GPS, HEK-293T) (PSI 1-6); higher = more stable
Conditions: treatment: MLN4924 1 uM, 8 h; c terminus: a fixed tail appended
Assay Readout: protein stability index
# output: bare number, no unit

In the examples that follow, each entry is paired with its recorded protein stability index.
{"Sequence": "LSEDYNKMTPVKNYQAHQSRVTMI [WDFY2]", "protein stability index": 2.83}
{"Sequence": "DEKQRDPRIEASKVLLCHGELRSK [NET1]", "protein stability index": 4.63}
{"Sequence": "APDFVGDILWEHLEQMIKENQEKT [ETS2]", "protein stability index": 4.58}

Value of measured protein stability index for the entry RDNPMCLKCDLQERLLCPSLLAGT [M1AP] : 2.16

---

Assay: protein stability index of a GFP-peptide fusion (GPS, HEK-293T) (PSI 1-6); higher = more stable
Conditions: treatment: MLN4924 1 uM, 8 h; c terminus: a fixed tail appended
Assay Readout: protein stability index
# output: bare number, no unit

{"Sequence": "DRLQVFHKRAIMPYGVYKKQQKDP [ATE1]", "Assay Readout": "protein stability index", "Readout Number": 3.34}

Let us move to another entry and its protein stability index.
Value of measured protein stability index for the entry LFAPTLIYRDSYPRNPTVRWGYVA [SOAT1] : 2.06

---

Assay: protein stability index of a GFP-peptide fusion (GPS, HEK-293T) (PSI 1-6); higher = more stable
Conditions: treatment: DMSO; c terminus: a fixed tail appended
Rule: true for protein stability index not less than 3, false for anything less.

Reference set, count: 4
{"Sequence": "QQPSLNTMIQQQNMQQPMNVMTQS [CLINT1]", "Category": "true"}
{"Sequence": "SEMEEEKRQAVNKAVANMQGEMDR [ZMYND11]", "Category": "true"}
{"Sequence": "RGQCLLYNWEEERATNHLDQVPSM [SPAG8]", "Category": "true"}
{"Sequence": "QTEELKYSIDQEFLKEYFPIEVVT [NLN]", "Category": "true"}

query: Kindly determine if protein stability index recorded for EAKNYLLLPQERPLMQGPRTRPRK [KLHL20] is above or exactly 3.
result: true

query: Kindly determine if protein stability index recorded for IDKNRRKSCQACRLRKCYEVGMVK [ESR2] is above or exactly 3.
result: false

query: Kindly determine if protein stability index recorded for SSIPRRDDFFRHESGEHFRSLLGY [RAD54B] is above or exactly 3.
result: false

query: Kindly determine if protein stability index recorded for LLKPHSYGRFIRWLNKEKGIFKIE [SPDEF] is above or exactly 3.
result: false
